molecular target: cGMP-specific 3',5'-cyclic phosphodiesterase (Homo sapiens, UniProt O76074)
pIC50: −log10 of the molar value.
Cut-off 8 on pIC50, inclusive. At or above means yes (1); below means no (0).

See these solved cases before continuing.
cpd_smiles=CCN1C(=O)c2c(nc(C(=O)NC)n2Cc2ccc(OC)c(Cl)c2)N2C1=N[C@@H]1CCC[C@@H]12 classification="yes (1)"
cpd_smiles=CCN1C(=O)c2c(nc(Cc3ccccc3)n2Cc2ccc(C)cc2)N2C1=N[C@@H]1CCC[C@@H]12 classification="no (0)"
cpd_smiles=CCN1C(=O)c2c(nc(C(N)=O)n2Cc2ccc(O)c(Cl)c2)N2C1=N[C@@H]1CCC[C@@H]12 classification="yes (1)"
cpd_smiles=CCN1C(=O)c2c(nc(OCc3ccccc3)n2Cc2ccc(O)c(Cl)c2)N2C[C@@H](Cc3ccccc3)N=C12 classification="yes (1)"
cpd_smiles=CCN1C(=O)c2c(nc(OC)n2Cc2ccc(OC)c(Cl)c2)N2C1=N[C@@H]1CCC[C@@H]12 classification="yes (1)"

Now consider the entry below.
Has CCN1C(=O)c2c(ncn2Cc2ccc(OC)cc2)N2C1=N[C@@H]1CCC[C@@H]12 a recorded pIC50 greater than or equal to 8?
no (0)

###

target: UniProtKB O76074; assay: Inhibition of human phosphodiesterase 5 at 100 nM
In this section we review reported inhibition values for a set of compounds.

Example results:
cpd_smiles=CCN1C(=O)c2c(nc(Cc3ccccc3)n2Cc2ccccc2C)N2C1=N[C@@H]1CCC[C@@H]12 readout=inhibition data_value=18%
cpd_smiles=CCN1C(=O)c2c(nc(Cc3ccccc3)n2Cc2cccc(Br)c2)N2C1=N[C@@H]1CCC[C@@H]12 readout=inhibition data_value=33%
cpd_smiles=CCN1C(=O)c2c(nc(Cc3ccccc3)n2Cc2cccc(Cl)c2)N2C1=N[C@@H]1CCC[C@@H]12 readout=inhibition data_value=26%

Answer with the recorded inhibition for the compound listed here: CCN1C(=O)c2c(nc(Cc3ccccc3)n2Cc2cccc(C)c2)N2C1=N[C@@H]1CCC[C@@H]12
26%

###

Quick record: IC50, cGMP-specific 3',5'-cyclic phosphodiesterase (Homo sapiens).
Express your answer in nM, writing the number without its unit.

Example results:
cpd_smiles=CCN1C(=O)c2c(nc(OC)n2Cc2ccc(OC)c(Br)c2)N2C1=N[C@@H]1CCC[C@@H]12 data_value=2.8
cpd_smiles=CCN1C(=O)c2c(nc(Cc3ccccc3)n2Cc2ccc(Cl)cc2)N2C1=N[C@@H]1CCC[C@@H]12 data_value=160
cpd_smiles=CCN1C(=O)c2c(nc(Cc3ccccc3)n2Cc2ccc(OC)cc2)N2C1=N[C@@H]1CCC[C@@H]12 data_value=20
cpd_smiles=CCN1C(=O)c2c(nc(C(N)=O)n2Cc2ccc(OC)c(Br)c2)N2C1=N[C@@H]1CCC[C@@H]12 data_value=1.5
cpd_smiles=CCN1C(=O)c2c(nc(OC)n2Cc2ccc(O)c(Cl)c2)N2C1=N[C@@H]1CCC[C@@H]12 data_value=2

Answer with the recorded IC50 for the molecule listed here: CCN1C(=O)c2c(nc(C(=O)NC)n2Cc2ccc(O)c(Cl)c2)N2C1=N[C@@H]1CCC[C@@H]12
1.3

Answer with the recorded IC50 for the molecule listed here: CCN1C(=O)c2c(nc(C(N)=O)n2Cc2ccc(O)c(Br)c2)N2C1=N[C@@H]1CCC[C@@H]12
0.9

Answer with the recorded IC50 for the molecule listed here: CCN1C(=O)c2c(nc(C(=O)OC)n2Cc2ccc(OC)cc2)N2C1=N[C@@H]1CCC[C@@H]12
6.8
